Target: recombinant human secreted phospholipase A2 (Homo sapiens, UniProt P14555)
Sequence (P14555 21-144): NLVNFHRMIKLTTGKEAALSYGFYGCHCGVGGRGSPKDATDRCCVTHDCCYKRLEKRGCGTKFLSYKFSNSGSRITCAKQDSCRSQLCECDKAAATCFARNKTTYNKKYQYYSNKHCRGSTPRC
Assay: Chromogenic assay for inhibitors of recombinant human secreted phospholipase A2 (Assay Example 1)
Format: biochemical
Conditions: diheptanoyl thio-PC substrate, pH 7.5, absorbance at 405 nm, triplicate
Kindly supply the reported IC50 values for the records listed here.
Entry format: amount then unit.

Please give measured IC50 of the following entry: CONC(=O)COc1cccc2c1c1c(C(N)=O)cccc1n2Cc1ccccc1
18.7 nM

Please report the measured IC50 for NC(=O)c1cccc2c1c1c(OCC(=O)NOCc3ccccc3)cccc1n2Cc1ccccc1
17 nM

Tell me its IC50 given CCONC(=O)COc1cccc2c1c1c(C(N)=O)cccc1n2Cc1ccccc1 as the entry.
19.3 nM

Dear colleague, please send me the reported IC50 for NC(=O)c1cccc2c1c1c(OCC(=O)NO)cccc1n2Cc1ccccc1 when you can.
18.3 nM

State, in one line, measured IC50 of CON(C)C(=O)COc1cccc2c1c1c(C(N)=O)cccc1n2Cc1ccccc1
42.5 nM

Check the records and state IC50 for NC(=O)c1cccc2c1c1c(OCC(=O)NOCc3ccccc3)cc(-c3cccs3)cc1n2Cc1ccccc1
29 nM

The reported numbers originate from patent US6933313B2.
